Where these numbers come from: patent US20250171437A1

# testedOn: human PAH with the R408W mutation (A375 R408W cells) (Homo sapiens, UniProt P00439, R408W)
# Construct: expressed in transfected cells
# Sequence (P00439 whole entry R408W): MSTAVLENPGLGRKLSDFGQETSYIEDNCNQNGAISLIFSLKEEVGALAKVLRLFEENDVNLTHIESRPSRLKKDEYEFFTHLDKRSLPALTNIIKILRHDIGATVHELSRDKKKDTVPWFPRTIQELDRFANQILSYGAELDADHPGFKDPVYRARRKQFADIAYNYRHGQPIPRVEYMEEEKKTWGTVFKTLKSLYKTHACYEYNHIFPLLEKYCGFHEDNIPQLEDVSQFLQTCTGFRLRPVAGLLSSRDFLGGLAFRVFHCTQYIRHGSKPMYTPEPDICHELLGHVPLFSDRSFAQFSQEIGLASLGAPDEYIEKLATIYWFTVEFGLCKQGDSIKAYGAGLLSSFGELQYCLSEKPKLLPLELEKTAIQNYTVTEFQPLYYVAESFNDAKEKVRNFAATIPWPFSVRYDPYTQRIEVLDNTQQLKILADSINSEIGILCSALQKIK
# assay: Cell Based Phenylalanine Flux Assay
# experimentalConditions: A375 R408W cells; 24 hrs with compound, then 20 μM sepiapterin and 800 μM 13C9,15N-Phenylalanine for 4 hours; 13C-Tyrosine by LC-MS; average where tested multiple times
propertyMeasured: AC50

INPUT: Recall the recorded AC50 for Cc1cccc2oc([C@@H]3c4nc[nH]c4CCN3C(=O)c3cnc(C(C)(C)O)o3)nc12 with human PAH with the R408W mutation (A375 R408W cells) (Homo sapiens, UniProt P00439, R408W) and state it.
OUTPUT: 500 to 1000 nM

INPUT: Next record, please: CC(F)(F)c1ncc(C(=O)N2CCc3[nH]cnc3[C@@H]2c2nc3cc(F)ccc3o2)s1
OUTPUT: 1000 to 5000 nM

INPUT: Next record, please: O=C(c1oc(-c2ccncn2)nc1C(F)F)N1CCc2[nH]cnc2[C@@H]1c1nc2cc(F)ccc2o1
OUTPUT: 1000 to 5000 nM

INPUT: Next record, please: CC(C)(O)c1nc(CF)c(C(=O)N2CCc3[nH]cnc3[C@@H]2c2nc3cc(F)ccc3o2)o1
OUTPUT: 1000 to 5000 nM

INPUT: Next record, please: COc1cccc2nc([C@@H]3c4nc[nH]c4CCN3C(=O)c3ccnn3C)oc12
OUTPUT: ≤ 500 nM

INPUT: Next record, please: CC(C)(O)c1nc(Cl)c(C(=O)N2CCc3[nH]cnc3[C@H]2c2nc3cc(F)ccc3o2)o1
OUTPUT: 500 to 1000 nM

INPUT: Next record, please: O=C(c1ocnc1C(F)F)N1CCc2[nH]cnc2[C@@H]1c1nc2ccc(F)cc2o1
OUTPUT: 1000 to 5000 nM

INPUT: Next record, please: O=C(c1oc(-c2ccc(C(F)(F)F)cn2)nc1C(F)F)N1CCc2[nH]cnc2[C@H]1c1nc2cc(F)ccc2o1
OUTPUT: ≤ 500 nM

INPUT: Next record, please: Cc1nc(C(=O)N2CCc3[nH]cnc3[C@H]2c2nc3cccc(C)c3o2)n(C)n1
OUTPUT: 1000 to 5000 nM

INPUT: Next record, please: Cn1cc(-c2nc(C(F)(F)F)c(C(=O)N3CCc4[nH]cnc4[C@H]3c3nc4cccc(F)c4o3)o2)cn1
OUTPUT: ≤ 500 nM

INPUT: Next record, please: Cc1ccc2c(C(=O)N3CCc4[nH]cnc4[C@@H]3c3nc4c(F)cccc4o3)cnn2c1
OUTPUT: 1000 to 5000 nM

INPUT: Next record, please: Cc1cc(F)cc2nc([C@@H]3c4nc[nH]c4CCN3C(=O)c3ocnc3C(F)F)oc12
OUTPUT: ≤ 500 nM

INPUT: Next record, please: CC(C)(O)c1nc(C(F)F)c(C(=O)N2CCc3[nH]cnc3[C@H]2c2nc3cccc(Br)c3o2)o1
OUTPUT: ≤ 500 nM

INPUT: Next record, please: Cc1ccc2c(C(=O)N3CCc4[nH]cnc4[C@@H]3c3nc4cc(F)ccc4o3)cnn2c1
OUTPUT: ≥ 5000 nM

INPUT: Next record, please: O=C(c1nnc(-c2cnn(C(F)F)c2)o1)N1CCc2[nH]cnc2[C@@H]1c1nc2ccccc2o1
OUTPUT: 1000 to 5000 nM

INPUT: Next record, please: Cn1cc(-c2nnc(C(=O)N3CCc4[nH]cnc4[C@@H]3c3nc4c(F)cc(F)cc4o3)o2)cn1
OUTPUT: 1000 to 5000 nM
